In this section, each of the variants is paired with its reported protein stability index.
B1: SPACA3 (parent)
chain: FTSGFNAAALDYEADGSTNNGIFQ

- Variants of: B1
- Protocol Notes: protein stability index of a GFP-peptide fusion (GPS, HEK-293T) (PSI 1-6); higher = more stable;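 note: lentivirally expressed fusions sorted by FACS into six bins by GFP to DsRed ratio, PSI derived from sequencing read proportions per bin multiplied by bin number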
- Test Settings: c terminus: a fixed tail appended
Outcome Measure: protein stability index

Residue Sequence	Numeric Result
FTSGFNAAALDYEADGSTNNGIGQ	2.54
FTSGFNAEALDYEADGSTNNGIFQ	2.35
FTSGFNAAALDYRADGSTNNGIFQ	1.66
FTSGFNAAALDYEADGSWNNGIFQ	1.59
FTSGFNAAALDCEADGSTNNGIFQ	2.28
FTSGFNAAALDYEADGSTFNGIFQ	2.24
FTSGFNAAALDYEADGDTNNGIFQ	2.21
FTQGFNAAALDYEADGSTNNGIFQ	2.19
FTSGFNAAALHYEADGSTNNGIFQ	2.04
FTSGFNAAALDYEADGGTNNGIFQ	2.05
GTSGFNAAALDYEADGSTNNGIFQ	4.61
FTSGENAAALDYEADGSTNNGIFQ	4.38
FTSGFNFAALDYEADGSTNNGIFQ	3.08
FTSGFNAAALLYEADGSTNNGIFQ	1.93
FTSGFNAAALDYEADGSTNNGNFQ	2.13
FTSGFNAAALDYEGDGSTNNGIFQ	1.76
FTSGFNAAALDYEADGSTCNGIFQ	2.31
FTSGFNAAALDYEASGSTNNGIFQ	2
FTSGFTAAALDYEADGSTNNGIFQ	1.61
FTSGFNAYALDYEADGSTNNGIFQ	1.89
FTSGFNAAALDYPADGSTNNGIFQ	1.55
FTSGFNAAALDYEADGSTNNGISQ	2.2
